As shown below, each of these compounds has a reported LAP4-GFP fluorescence (kMESF) value.
Test: LAP4-GFP modulation potency in yeast, dose response, cell-based, MLPCN hits, flow cytometry (AID 2745);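 further: yeast exposed to compound for three hours at 30 degrees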
Details: S. cerevisiae LAP4-GFP reporter, flow cytometry fluorescence; at 33 µM (top of the series)
Active and inactive are the calls of the source. How the calls were made is not given here.

{"test_smiles": "Oc1c(CN2CCCCC2)cc(Br)c2cccnc12", "LAP4-GFP fluorescence (kMESF)": "16 kMESF (inactive)"}
{"test_smiles": "O=C(Oc1oc(-c2ccco2)nc1C=Nc1ccccc1)c1ccoc1", "LAP4-GFP fluorescence (kMESF)": "8.01 kMESF (inactive)"}
{"test_smiles": "COc1cc(/C=C2\\C(=O)ON=C2c2ccccc2)cc(OC)c1OC", "LAP4-GFP fluorescence (kMESF)": "6.41 kMESF (inactive)"}
{"test_smiles": "Cc1ccc(-c2nc(N)c3c(-c4ccc(C)cc4)nn(C(C)(C)C)c3n2)cc1", "LAP4-GFP fluorescence (kMESF)": "3.37 kMESF (inactive)"}
{"test_smiles": "O=C(Nc1nc2ccc(F)cc2s1)c1ccccn1", "LAP4-GFP fluorescence (kMESF)": "8.11 kMESF (inactive)"}
